// data source = patent US9821072B2

Bridge positions count the residues as written; N and C are the ends. Square brackets hold non-standard residues; d marks the D form. Peptide text beside a SMILES is read from it. * marks the point of attachment. Tle = CC(C)(C)[C@H](N)C(=O)O; Pip = O=C(O)[C@@H]1CCCCN1; Propionyl = CCC(=O)*; Sar = CNCC(=O)O
Each entry below carries its measured pKi, system: UniProt:P30989.
Sequence (P30989 whole entry): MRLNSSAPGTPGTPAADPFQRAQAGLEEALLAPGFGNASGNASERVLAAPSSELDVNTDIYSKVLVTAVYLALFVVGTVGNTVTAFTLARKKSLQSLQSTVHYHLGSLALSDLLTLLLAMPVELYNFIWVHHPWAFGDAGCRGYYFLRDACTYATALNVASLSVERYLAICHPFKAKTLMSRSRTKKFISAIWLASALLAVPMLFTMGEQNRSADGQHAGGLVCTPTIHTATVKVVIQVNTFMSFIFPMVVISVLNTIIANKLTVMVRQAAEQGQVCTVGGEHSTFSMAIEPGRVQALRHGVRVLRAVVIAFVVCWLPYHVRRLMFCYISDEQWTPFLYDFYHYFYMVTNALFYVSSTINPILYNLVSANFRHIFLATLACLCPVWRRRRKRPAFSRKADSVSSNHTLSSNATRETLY
Numbers only, as −log10 of the molar value.

molecule	pKi
CCC(=O)N[C@@H]1CSSC[C@@H](C(=O)N[C@@H](CCCNC(=N)N)C(=O)N[C@@H](CCCCN)C(=O)N2CCC[C@H]2C(=O)N[C@@H](Cc2ccc(O)cc2)C(=O)N[C@H](C(=O)N[C@@H](CC(C)C)C(=O)O)C(C)(C)C)NC(=O)CN(C)C(=O)[C@H](CCCNC(=N)N)NC(=O)[C@H](CC(C)C)NC(=O)[C@H](CCCNC(=N)N)NC(=O)[C@@H]2CCCCN2C(=O)[C@H](CCSC)NC1=O [XVII, Pr-cMPipRLRSarC-RKPYTIeL-OH] (Propionyl-[dC]M[Pip]RLR[Sar]CRKPY[Tle]L-OH; disulfide 1-8)	9.33
CCC(=O)N[C@@H]1CSSC[C@@H](C(=O)N[C@@H](CCCCN)C(=O)N[C@@H](CCCNC(=N)N)C(=O)N2CCC[C@H]2C(=O)N[C@@H](Cc2ccc(O)cc2)C(=O)N[C@H](C(=O)N[C@@H](CC(C)C)C(=O)O)C(C)(C)C)NC(=O)CN(C)C(=O)[C@H](CCCNC(=N)N)NC(=O)[C@H](CC(C)C)NC(=O)[C@H](CCCNC(=N)N)NC(=O)[C@@H]2CCCCN2C(=O)[C@H](CCSC)NC1=O [XVI, Pr-cMPipRLRSarC-KRPYTIeL-OH] (Propionyl-[dC]M[Pip]RLR[Sar]CKRPY[Tle]L-OH; disulfide 1-8)	9.82

Prompt line: Output pKi of CCC(=O)N[C@@H]1CSSC[C@@H](C(=O)NCCOCCOCCOCCOCCOCCOCCC(=O)N[C@@H](CCCNC(=N)N)C(=O)N[C@@H](CCCNC(=N)N)C(=O)N2CCC[C@H]2C(=O)N[C@@H](Cc2ccc(O)cc2)C(=O)N[C@H](C(=O)N[C@@H](CC(C)C)C(=O)O)[C@@H](C)CC)NC(=O)CN(C)C(=O)[C@H](CCCNC(=N)N)NC(=O)[C@H](CC(C)C)NC(=O)[C@H](CCCNC(=N)N)NC(=O)[C@@H]2CCCCN2C(=O)[C@H](CCSC)NC1=O
Response line: 9.66

---

Experiment: In vitro blood stability in freshly collected mouse blood (LC-MS/MS)
Format: in vitro ADME, Swiss (CD-1) mouse
Details: whole blood, 2 μM, 37° C.
value type: half-life (h)
Give bare numbers, in h.

Prompt line: Output half-life of CCC(=O)N[C@@H]1CSSC[C@@H](C(=O)NCCOCCOCCOCCOCCOCCOCCC(=O)N[C@@H](CCCNC(=N)N)C(=O)N[C@@H](CCCNC(=N)N)C(=O)N2CCC[C@H]2C(=O)N[C@@H](Cc2ccc(O)cc2)C(=O)N[C@H](C(=O)N[C@@H](CC(C)C)C(=O)O)[C@@H](C)CC)NC(=O)CN(C)C(=O)[C@H](CCCNC(=N)N)NC(=O)[C@H](CC(C)C)NC(=O)[C@H](CCCNC(=N)N)NC(=O)[C@@H]2CCCCN2C(=O)[C@H](CCSC)NC1=O [Compound XIV, Pr-cMPipRLRSarC-PEG6-RRPYIL-OH]
Response line: 1.6
